System: Liver microsome
Assay: Drug metabolism in human liver microsomes assessed as 17-hydroexemestane formation after 10 mins by Michaelis-Menten saturation curve analysis
Type: ADME
Conditions: read-out: Km(app)
measured.quantity: Km (µM)
Lab book: enter the figure in µM, no units written.

Provide only the value of recorded Km for C=C1C[C@@H]2[C@H](CC[C@]3(C)C(O)CC[C@@H]23)[C@@]2(C)C=CC(=O)C=C12 (stereo partly specified)
13.7
